test: Inhibition of cells growth by colorimetric (SRB) assay, HMEC1; conditions: human, HMEC1 cells, LC50 H-MEC-1, SRB assay, 48 hours exposure
Each record is given rule met if its reported CC50 at 48 h is strictly below 30 µM. Records at or above 30 µM are given rule not met.

[
  {
    "CPD_SMILES": "CSc1nccc(-c2c3c(O)ccnc3n3c(N)nccc23)n1",
    "ASSIGNED_CLASS": "rule not met"
  },
  {
    "CPD_SMILES": "CS(=O)(=O)c1nccc(-c2c3c(OCc4ccccc4)ccnc3n3c(N)nccc23)n1",
    "ASSIGNED_CLASS": "rule met"
  },
  {
    "CPD_SMILES": "COc1nccc(-c2c3c(N)ccnc3n3c(N)nccc23)n1",
    "ASSIGNED_CLASS": "rule met"
  },
  {
    "CPD_SMILES": "COc1nccc(-c2c3c(OC)ccnc3n3c(N)nccc23)n1",
    "ASSIGNED_CLASS": "rule not met"
  },
  {
    "CPD_SMILES": "CSc1nccc(-c2c3c(OCc4ccccc4)ccnc3n3c(N)nccc23)n1",
    "ASSIGNED_CLASS": "rule met"
  }
]

Q: Here's an entry: `CS(=O)(=O)c1nccc(-c2c3c(Cl)ccnc3n3c(N)nccc23)n1` . Is its CC50 at 48 h below 30 µM?
Result: rule met
